These data points were gathered from PubChem BioAssay AID488888.

- TGT: Alkaline phosphatase, placental type (Homo sapiens) (UniProt P05187)
- Sequence (P05187 whole entry, looked up): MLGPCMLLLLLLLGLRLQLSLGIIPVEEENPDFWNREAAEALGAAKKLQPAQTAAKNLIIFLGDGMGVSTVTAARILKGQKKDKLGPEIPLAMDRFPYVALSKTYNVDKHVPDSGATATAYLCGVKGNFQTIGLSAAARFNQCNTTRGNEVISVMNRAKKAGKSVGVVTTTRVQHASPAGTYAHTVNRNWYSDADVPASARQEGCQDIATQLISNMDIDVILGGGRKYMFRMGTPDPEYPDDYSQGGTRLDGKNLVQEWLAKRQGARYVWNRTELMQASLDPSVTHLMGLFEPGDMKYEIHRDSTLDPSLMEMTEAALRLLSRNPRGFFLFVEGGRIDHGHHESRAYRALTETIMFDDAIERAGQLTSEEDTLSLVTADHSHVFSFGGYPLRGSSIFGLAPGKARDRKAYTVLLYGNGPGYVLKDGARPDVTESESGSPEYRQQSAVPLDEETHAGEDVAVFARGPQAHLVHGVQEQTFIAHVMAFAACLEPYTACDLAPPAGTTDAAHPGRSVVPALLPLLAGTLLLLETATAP
- PROCEDURE SUMMARY: activation of placental alkaline phosphatase – biochemical, uHTS hits, luminescence, selectivity assay for human IAP activator project, dose response (AID 488888)
- RECORDED CONDITIONS: purified PLAP, CDP-Star luminescence, 30 min
pEC50: −log10 of the molar value.
ASSAY ENDPOINT: pEC50

Some entries whose results are on file:
O=C(NNC(=S)NC(=O)c1ccccc1)c1cccnc1 | 4.73
O=Nc1[nH]c(=O)c(/C=C(\O)c2ccccc2)nc1NO | 5.01
COc1ccccc1CNC(=O)CN(c1ccc(C)cc1)S(=O)(=O)c1c(C)noc1C | 4.05
Cc1c(C(=O)N/N=C/c2c(O)ccc3ccccc23)nnn1-c1nonc1N | 4.79
CCCOCC(O)CC(CC)C(=O)NNC(=S)Nc1ccccc1 (stereo unspecified) | 4.78

(1) COc1ccccc1C1=NN(C2=NN=C(N)Cc3ncnn32)C(O)(C(F)(F)F)C1 (stereo unspecified)
(2) CCOC(=O)c1c(C)[nH]c(C(=O)N/N=C/c2cc([N+](=O)[O-])ccc2O)c1C
(3) CCC(NC(=S)NC1CCCCC1)c1ccc(C(C)C)cc1 (stereo unspecified)
Write the entries in order, lowest recorded pEC50 first. Provide the labels, sequenced as the question asks.
3, 2, 1
(3: 4.22, 2: 4.63, 1: 4.91)

(I) Cc1ccc(-c2cc(C(=O)N/N=C/c3ccccc3O)n[nH]2)o1
(II) Cc1nc(Nc2nc3c(c(=O)[nH]2)CCC3)nc2ccccc12
Given I and II , report the one with the higher recorded pEC50. # answer = label of selected item
I

###

- TGT: UniProtKB P05187
- PROCEDURE SUMMARY: activation of placental alkaline phosphatase – biochemical, uHTS hits, luminescence, selectivity assay for human IAP activator project, dose response (AID 488888)
- RECORDED CONDITIONS: purified PLAP, CDP-Star luminescence, 30 min
Calls of active or inactive are those of the source.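 The calls were made as follows: active = mean EC50, the dose giving half of full activation, below a set limit (actives reach about 84 µM in these data); inactive = the rest.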
Use one of these outcomes when replying: active, inactive

Cc1cccc(OCC(=O)NNC(=O)c2ccc3nc[nH]c3c2)c1 | active
O=C(Cc1ccc(Cl)c(Cl)c1)NNC(=S)NCC1CCCO1 (stereo unspecified) | active
O=c1oc(-c2ccc(O)c(O)c2)cc2cc(O)cc(O)c12 | inactive

What did this assay record as the result for CCOc1cc(/C=N/NC(=O)C(=O)N/N=C/c2ccc(O)c(OCC)c2)ccc1O ?
active

What did this assay record as the result for Cc1cc(C(=O)NC2CC(C)(C)Cc3c2cnn3-c2ccccc2)n[nH]1 (stereo unspecified) ?
active

What did this assay record as the result for NC(CO)C(=O)NNCc1ccc(O)c(O)c1O (stereo unspecified) ?
active

###

- TGT: Alkaline phosphatase, placental type (Homo sapiens)
- PROCEDURE SUMMARY: activation of placental alkaline phosphatase – biochemical, uHTS hits, luminescence, selectivity assay for human IAP activator project, dose response (AID 488888)
- RECORDED CONDITIONS: purified PLAP, CDP-Star luminescence, 30 min
pEC50: −log10 of the molar value.
ASSAY ENDPOINT: pEC50

O=C(NN1C(=O)CSC1=S)C(=O)NN1C(=O)CSC1=S | 4.84
CCOc1ccc(CC(=O)NNC(=S)NC2CCCCC2)cc1OCC | 4.69
CSCCC(NS(=O)(=O)c1ccccc1F)C(=O)NNC(=O)c1csc(N2CCOCC2)n1 (configuration not stated) | 4.90
COc1cccc(/C=N\NC(=O)C2=NNC(=O)C2C)c1O (configuration not stated) | 5.11
CC1C(=O)NN=C1C(=O)N/N=C\c1ccc(O)cc1O (configuration not stated) | 4.88

(P) Cc1ccc(NC(=O)NNC(=O)c2cc3ccccc3cc2O)cc1
(Q) O=C(N/N=C/c1c(F)cccc1Cl)c1cc(C2CC2)[nH]n1
Given P and Q , report the one with the higher recorded pEC50. # answer = label of selected item
P
